Entries and their Diameter (nm) values follow.
experiment: Diameter and PDI from DLS measurements of mRNA nanoparticles with lipid amines; format: physicochemical; details: CFTR mRNA nanoparticle with lipid amine
Counter-ions that a name gives are not always drawn.

{"MOLECULE": "CC(C)CCC[C@@H](C)[C@H]1CC[C@H]2[C@@H]3CC=C4C[C@@H](SSCCC(=O)N(CCCCCCCC(C)(C)N)CCC(C)(C)N)CC[C@]4(C)[C@H]3CC[C@]12C.Cl.Cl", "Diameter (nm)": 68.9}
{"MOLECULE": "CC(C)CCC[C@@H](C)[C@H]1CC[C@H]2[C@@H]3CC=C4C[C@@H](SSCCC(=O)N(CCCCNCCC(C)N)CCC(C)N)CC[C@]4(C)[C@H]3CC[C@]12C (stereo partly drawn) [SA171, trihydrochloride]", "Diameter (nm)": 71.3}
{"MOLECULE": "CC(C)CCC[C@@H](C)[C@H]1CC[C@H]2[C@@H]3CC=C4C[C@@H](OC(=O)N(CCCCOCCCN(C)C)CCCN(C)C)CC[C@]4(C)[C@H]3CC[C@]12C", "Diameter (nm)": 72.8}

====

Test: Diameter and PDI from DLS measurements of mRNA nanoparticles with lipid amines
Format: physicochemical
Details: Luciferase mRNA nanoparticle modified with lipid amine
Method: Lipids are dissolved in ethanol at a concentration of 24 mg/mL and molar ratios of 49.0:11.2:39.3:0.5 (IL1:DSPC:cholesterol:PEG-DMG-2K) and mixed with the acidification buffer (45 mM acetate buffer at pH 4). The lipid solution and acidification buffer are mixed using a multi-inlet vortex mixer at a 3:7 volumetric ratio of lipid:buffer for mixer 1 and mixer 2 and a 1:3 volumetric ratio of lipid:buffer (25% ethanol) for mixer 3. […]
Structures can show the parent of a compound that is named as a salt.
The entries below come with measured Diameter (nm) values attached.

{"COMPOUND": "CC[C@H](CC[C@@H](C)[C@H]1CC[C@H]2[C@@H]3CC=C4C[C@@H](OC(=O)CCC(=O)N(CCC(C)N)CCC(C)N)CC[C@]4(C)[C@H]3CC[C@]12C)C(C)C (stereo partly drawn) [SA168, dihydrochloride]", "Diameter (nm)": "79 nm"}
{"COMPOUND": "CC[C@H](CC[C@@H](C)[C@H]1CC[C@H]2[C@@H]3CC=C4C[C@@H](SSCCC(=O)N(CCCCCCCC(C)(C)N)CCC(C)(C)N)CC[C@]4(C)[C@H]3CC[C@]12C)C(C)C [SA179, dihydrochloride]", "Diameter (nm)": "73 nm"}
{"COMPOUND": "C/C(=C/CCC(C)C)[C@H]1CC[C@H]2[C@@H]3CC=C4C[C@@H](OC(=O)N(CCCN)CCCCNCCCN)CC[C@]4(C)[C@H]3CC[C@]12C [SA70]", "Diameter (nm)": "76 nm"}

====

Property: Diameter (nm); scope: individual molecules
test: Diameter and PDI from DLS measurements of mRNA nanoparticles with lipid amines; format: physicochemical; conditions: CFTR mRNA nanoparticle with lipid amine
Counter-ions that a name gives are not always drawn.

{"MOLECULE": "CC[C@H](CC[C@@H](C)[C@H]1CC[C@H]2[C@@H]3CC=C4C[C@@H](OC(=O)[C@H](C)N(CCCN)CCCCNCCCN)CC[C@]4(C)[C@H]3CC[C@]12C)C(C)C [SA118]", "Diameter (nm)": 89.9}
{"MOLECULE": "CC[C@H](CC[C@@H](C)[C@H]1CC[C@H]2[C@@H]3CC=C4C[C@@H](OC(=O)CCCC(=O)N(CCCN)CCCCNCCCN)CC[C@]4(C)[C@H]3CC[C@]12C)C(C)C [SA117, trihydrochloride]", "Diameter (nm)": 94.7}
{"MOLECULE": "CC[C@H](CC[C@@H](C)[C@H]1CC[C@H]2[C@@H]3CC=C4C[C@@H](OC(=O)N(CCCC(C)(C)N)CCC(C)(C)N)CC[C@]4(C)[C@H]3CC[C@]12C)C(C)C [SA149, dihydrochloride]", "Diameter (nm)": 72.3}
{"MOLECULE": "CC[C@H](CC[C@@H](C)[C@H]1CC[C@H]2[C@@H]3CC=C4C[C@@H](OC(=O)CCCC(=O)N(CCCCNCCC(C)N)CCC(C)N)CC[C@]4(C)[C@H]3CC[C@]12C)C(C)C.Cl.Cl.Cl (some centres unmarked) [SA136]", "Diameter (nm)": 76.9}
{"MOLECULE": "CC[C@H](CC[C@@H](C)[C@H]1CC[C@H]2[C@@H]3CC=C4C[C@@H](OC(=O)CCCC(=O)N(CCC(C)N)CCC(C)N)CC[C@]4(C)[C@H]3CC[C@]12C)C(C)C (some centres unmarked) [SA156, dihydrochloride]", "Diameter (nm)": 76.5}

====

Reported PDI values are given for each entry in this list.
experiment: Diameter and PDI from DLS measurements of mRNA nanoparticles with lipid amines; type: physicochemical; conditions: Luciferase mRNA nanoparticle modified with lipid amine
Counter-ions that a name gives are not always drawn.

{"MOLECULE": "CC(C)CCC[C@@H](C)[C@H]1CC[C@H]2[C@@H]3CC=C4C[C@@H](OC(=O)CCC(=O)N(CCCCCCCC(C)N)CCC(C)N)CC[C@]4(C)[C@H]3CC[C@]12C (stereo partly shown) [SA162, dihydrochloride]", "PDI": 0.15}
{"MOLECULE": "CC(C)CCC[C@@H](C)[C@H]1CC[C@H]2[C@@H]3CC=C4C[C@@H](OC(=O)N(CCCCNCC(C)(C)CN)CC(C)(C)CN)CC[C@]4(C)[C@H]3CC[C@]12C [SA77, trihydrochloride]", "PDI": 0.20}
{"MOLECULE": "CC(C)CCC[C@@H](C)[C@H]1CC[C@H]2[C@@H]3CC=C4C[C@@H](OC(=O)N(CCCCCCCC(C)(C)N)CCC(C)(C)N)CC[C@]4(C)[C@H]3CC[C@]12C [SA152, dihydrochloride]", "PDI": 0.15}
{"MOLECULE": "CC(C)CCC[C@@H](C)[C@H]1CC[C@H]2[C@@H]3CC=C4C[C@@H](SSCCC(=O)N(CCC(C)(C)N)CCC(C)(C)N)CC[C@]4(C)[C@H]3CC[C@]12C [SA174, dihydrochloride]", "PDI": 0.17}

====

test: Diameter and PDI from DLS measurements of mRNA nanoparticles with lipid amines; format: physicochemical; conditions: Luciferase mRNA nanoparticle modified with lipid amine
Structures can show the parent of a compound that is named as a salt.
Examples of compounds with documented PDI follow.
MEASURE NAME: PDI

{"COMPOUND": "CC(C)CCC[C@@H](C)[C@H]1CC[C@H]2[C@@H]3CC=C4C[C@@H](OC(=O)C(=O)N(CCCN)CCCCNCCCN)CC[C@]4(C)[C@H]3CC[C@]12C [SA66, trihydrochloride]", "MEASURE NAME": "PDI", "RESULT VALUE": 0.18}
{"COMPOUND": "C/C(=C/CCC(C)C)[C@H]1CC[C@H]2[C@@H]3CC=C4C[C@@H](OC(=O)N(CCCN)CCCCNCCCN)CC[C@]4(C)[C@H]3CC[C@]12C [SA70]", "MEASURE NAME": "PDI", "RESULT VALUE": 0.21}
{"COMPOUND": "CC[C@H](CC[C@@H](C)[C@H]1CC[C@H]2[C@@H]3CC=C4C[C@@H](OC(=O)N(CCCCNCCC(C)(C)N)CCC(C)(C)N)CC[C@]4(C)[C@H]3CC[C@]12C)C(C)C [SA114, trihydrochloride]", "MEASURE NAME": "PDI", "RESULT VALUE": 0.18}
{"COMPOUND": "CC(C)CCC[C@@H](C)[C@H]1CC[C@H]2[C@@H]3CC=C4C[C@@H](OC(=O)CN(CCCCCCCCN)C(=O)CCCCN)CC[C@]4(C)[C@H]3CC[C@]12C [SA122, dihydrochloride]", "MEASURE NAME": "PDI", "RESULT VALUE": 0.15}
{"COMPOUND": "CC(C)CCC[C@@H](C)[C@H]1CC[C@H]2[C@@H]3CC=C4C[C@@H](OC(=O)CCC(=O)N(CCCCCCCC(C)(C)N)CCC(C)(C)N)CC[C@]4(C)[C@H]3CC[C@]12C [SA164, dihydrochloride]", "MEASURE NAME": "PDI", "RESULT VALUE": 0.14}

====

Parameter: Average Relative Light Units ± Standard Deviation. Scope: all listed entries.
system: HeLa cells; assay: Luciferase Protein Expression Assay in HeLa Cells; assay type: cell-based, Human; conditions: LNPs encapsulating Luciferase mRNA, 25 ng per well, N=4 wells; 5 h serum-free then 24 h; ONE-Glo
Where a name gives a salt, the structure may show the parent alone.
MEASURE NAME: Average Relative Light Units ± Standard Deviation

{"COMPOUND": "CC(C)CCC[C@@H](C)[C@H]1CC[C@H]2[C@@H]3CC=C4C[C@@H](OC(=O)CCC(=O)N(CCC(C)(C)N)CCC(C)(C)N)CC[C@]4(C)[C@H]3CC[C@]12C [SA169, dihydrochloride]", "RESULT VALUE": "28034.9 ± 4050.3 Relative Light Units"}
{"COMPOUND": "CC[C@H](CC[C@@H](C)[C@H]1CC[C@H]2[C@@H]3CC=C4C[C@@H](OC(=O)CCCC(=O)N(CCCCNCCC(N)(CC)CC)CCC(N)(CC)CC)CC[C@]4(C)[C@H]3CC[C@]12C)C(C)C [SA182, trihydrochloride]", "RESULT VALUE": "38564.9 ± 12453 Relative Light Units"}
{"COMPOUND": "CC[C@H](CC[C@@H](C)[C@H]1CC[C@H]2[C@@H]3CC=C4C[C@@H](SSCCC(=O)N(CCCCCCCC(C)(C)N)CCC(C)(C)N)CC[C@]4(C)[C@H]3CC[C@]12C)C(C)C [SA179, dihydrochloride]", "RESULT VALUE": "12298.9 ± 928.6 Relative Light Units"}
{"COMPOUND": "CC(C)CCC[C@@H](C)[C@H]1CC[C@H]2[C@@H]3CC=C4C[C@@H](OC(=O)C(=O)N(CCCN)CCCCNCCCN)CC[C@]4(C)[C@H]3CC[C@]12C [SA66, trihydrochloride]", "RESULT VALUE": "13951.3 ± 6740.3 Relative Light Units"}

Reference source: patent US20260109732A1
